# Experimental system: UniProt P25103
# Sequence (P25103 whole entry): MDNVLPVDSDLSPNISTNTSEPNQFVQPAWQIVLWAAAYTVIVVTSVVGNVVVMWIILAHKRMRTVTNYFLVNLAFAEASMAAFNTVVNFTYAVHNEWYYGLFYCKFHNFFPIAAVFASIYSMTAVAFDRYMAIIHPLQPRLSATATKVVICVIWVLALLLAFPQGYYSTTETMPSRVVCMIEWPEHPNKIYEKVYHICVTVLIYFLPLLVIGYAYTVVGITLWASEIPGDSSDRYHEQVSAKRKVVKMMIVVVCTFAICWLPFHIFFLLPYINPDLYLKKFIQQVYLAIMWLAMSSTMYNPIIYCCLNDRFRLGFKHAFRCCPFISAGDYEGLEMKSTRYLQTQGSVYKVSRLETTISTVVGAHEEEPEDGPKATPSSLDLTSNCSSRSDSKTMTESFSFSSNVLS
Recorded metric: Ki (nM)

Examples with their reported Ki follow.
compound="COc1ccc(C(C(=O)N(C)CCc2cc(C(F)(F)F)cc(C(F)(F)F)c2)N2CCN(C3CCCCC3)CC2)cc1OC (stereo not shown)" experimental_system="UniProt P25103" experimental_value=2.8
compound="O=C(NCCc1cc(C(F)(F)F)cc(C(F)(F)F)c1)C(c1ccccc1)N1CCN(C2CCCCC2)CC1 (stereo not shown)" experimental_system="UniProt P25103" experimental_value=1.4

1. CN(CCc1cc(C(F)(F)F)cc(C(F)(F)F)c1)C(=O)C(c1ccccc1)N1CCC(N2CCCC2)CC1 (stereo not shown)
2. CN(CCc1cc(C(F)(F)F)cc(C(F)(F)F)c1)C(=O)C(c1ccc2c(c1)OCO2)N1CCN(C2CCCCC2)CC1 (stereo not shown)
Task: Given 1 and given 2 , which shows the smaller recorded Ki? Lab log: write the label of the selected item as the result.
Output: 1
(1: 1.1 nM, 2: 2.1 nM)
